Cited source for all entries: ChEMBL document CHEMBL1147446

# assayed.system: Sodium-dependent noradrenaline transporter (Homo sapiens)
# assay.explanation: Inhibitory activity against human adrenergic norepinephrine transporter at 10 uM
property.measured: inhibition (%)
Just the number please, in %, no unit attached.

QUERY: // inhibition lookup, key: "CC[C@H](C)[C@H](C(=O)O)N1C[C@H](CN2CCC(c3cc(Cc4ccc(OC)c(OC)c4)nn3CC)CC2)[C@@H](c2cccc(F)c2)C1"
RESULT: 15

QUERY: Now this one: "CCn1nc(Cc2ccc(S(C)(=O)=O)cc2)cc1C1CCN(C[C@H]2CN([C@@H](C(=O)O)C(C)(C)C)C[C@@H]2c2cccc(F)c2)CC1"
RESULT: 13

QUERY: Now this one: "CC[C@H](C)[C@H](C(=O)O)N1C[C@H](CN2CCC(c3cc(Cc4ccc(OC(F)(F)F)cc4)nn3CC)CC2)[C@@H](c2cccc(F)c2)C1"
RESULT: 42

* * *

# assayed.system: UniProtKB Q12809
# Sequence (Q12809 whole entry): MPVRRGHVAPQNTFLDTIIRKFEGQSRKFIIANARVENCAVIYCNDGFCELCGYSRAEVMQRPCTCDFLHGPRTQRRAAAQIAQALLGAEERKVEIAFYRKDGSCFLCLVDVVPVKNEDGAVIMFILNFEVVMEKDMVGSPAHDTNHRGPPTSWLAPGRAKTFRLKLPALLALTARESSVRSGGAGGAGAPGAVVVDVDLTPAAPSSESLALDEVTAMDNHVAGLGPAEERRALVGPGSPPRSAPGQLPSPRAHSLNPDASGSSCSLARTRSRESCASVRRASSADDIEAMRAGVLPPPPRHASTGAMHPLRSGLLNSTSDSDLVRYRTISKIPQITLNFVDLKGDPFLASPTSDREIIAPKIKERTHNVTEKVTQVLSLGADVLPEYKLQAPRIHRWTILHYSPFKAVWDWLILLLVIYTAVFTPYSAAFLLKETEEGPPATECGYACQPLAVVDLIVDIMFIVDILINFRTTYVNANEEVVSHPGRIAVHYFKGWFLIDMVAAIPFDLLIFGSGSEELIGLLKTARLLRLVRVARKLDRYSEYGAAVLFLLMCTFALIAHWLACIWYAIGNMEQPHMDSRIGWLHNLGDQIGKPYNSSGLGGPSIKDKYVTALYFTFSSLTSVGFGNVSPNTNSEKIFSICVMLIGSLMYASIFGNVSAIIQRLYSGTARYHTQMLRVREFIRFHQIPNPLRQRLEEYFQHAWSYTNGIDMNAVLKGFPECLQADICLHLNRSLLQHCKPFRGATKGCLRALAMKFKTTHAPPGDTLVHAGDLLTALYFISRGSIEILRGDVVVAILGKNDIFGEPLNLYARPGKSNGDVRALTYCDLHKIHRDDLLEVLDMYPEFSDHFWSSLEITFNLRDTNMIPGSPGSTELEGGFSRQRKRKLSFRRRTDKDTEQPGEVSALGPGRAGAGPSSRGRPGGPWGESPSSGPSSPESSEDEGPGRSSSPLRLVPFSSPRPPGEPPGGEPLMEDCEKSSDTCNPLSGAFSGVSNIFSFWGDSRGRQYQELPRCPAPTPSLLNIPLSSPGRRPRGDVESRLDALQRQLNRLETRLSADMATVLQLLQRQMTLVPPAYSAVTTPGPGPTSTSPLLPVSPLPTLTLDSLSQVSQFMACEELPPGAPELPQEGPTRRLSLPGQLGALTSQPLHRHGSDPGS
# assay.explanation: Binding affinity against hERG Voltage-gated potassium channel subunit Kv11.1
For each entry below, report its Ki value.
Just the number please, in µM, no unit attached.

QUERY: // Ki lookup, key: "CC[C@H](C)[C@H](C(=O)O)N1C[C@H](CN2CCC(c3cc(Cc4ccccc4)nn3CC)CC2)[C@@H](c2cccc(F)c2)C1"
RESULT: 30

QUERY: Now this one: "CCn1nc(Cc2ccc(-c3ccccc3)cc2)cc1C1CCN(C[C@H]2CN([C@@H](C(=O)O)C3CCCCC3)C[C@@H]2c2cccc(F)c2)CC1"
RESULT: 0.4

* * *

For each entry below, report its IC90 value.
# Tested on: HeLa
# assay.explanation: Antiviral activities in a cell culture HIV-1 infectivity inhibition assay using HeLa cells plus 50% normal human serum
# Type: functional
Just the number please, in µM, no unit attached.

QUERY: // IC90 lookup, key: "CCn1nc(Cc2ccc(OC)cc2)cc1C1CCN(C[C@H]2CN([C@@H](C(=O)O)C3CCCCC3)C[C@@H]2c2cccc(F)c2)CC1"
RESULT: 0.033

QUERY: Now this one: "CCn1nc(Cc2ccc(OC(F)(F)F)cc2)cc1C1CCN(C[C@H]2CN([C@@H](C(=O)O)C(C)(C)C)C[C@@H]2c2cccc(F)c2)CC1"
RESULT: 0.1

QUERY: Now this one: "CCOc1cccc(Cc2cc(C3CCN(C[C@H]4CN([C@@H](C(=O)O)C(C)(C)C)C[C@@H]4c4cccc(F)c4)CC3)n(CC)n2)c1"
RESULT: 0.1

QUERY: Now this one: "CCn1nc(Cc2ccc(OC)cc2)cc1C1CCN(C[C@H]2CN([C@@H](C(=O)O)C(C)(C)C)C[C@@H]2c2cccc(F)c2)CC1"
RESULT: 0.033

QUERY: Now this one: "CCn1nc(Cc2ccc(C(C)C)cc2)cc1C1CCN(C[C@H]2CN([C@@H](C(=O)O)C(C)(C)C)C[C@@H]2c2cccc(F)c2)CC1"
RESULT: 0.033

QUERY: Now this one: "CCn1nc(Cc2ccc3ccccc3c2)cc1C1CCN(C[C@H]2CN([C@@H](C(=O)O)C(C)(C)C)C[C@@H]2c2cccc(F)c2)CC1"
RESULT: 0.1

* * *

# assayed.system: Sodium-dependent dopamine transporter (Homo sapiens)
# Sequence (Q01959 whole entry): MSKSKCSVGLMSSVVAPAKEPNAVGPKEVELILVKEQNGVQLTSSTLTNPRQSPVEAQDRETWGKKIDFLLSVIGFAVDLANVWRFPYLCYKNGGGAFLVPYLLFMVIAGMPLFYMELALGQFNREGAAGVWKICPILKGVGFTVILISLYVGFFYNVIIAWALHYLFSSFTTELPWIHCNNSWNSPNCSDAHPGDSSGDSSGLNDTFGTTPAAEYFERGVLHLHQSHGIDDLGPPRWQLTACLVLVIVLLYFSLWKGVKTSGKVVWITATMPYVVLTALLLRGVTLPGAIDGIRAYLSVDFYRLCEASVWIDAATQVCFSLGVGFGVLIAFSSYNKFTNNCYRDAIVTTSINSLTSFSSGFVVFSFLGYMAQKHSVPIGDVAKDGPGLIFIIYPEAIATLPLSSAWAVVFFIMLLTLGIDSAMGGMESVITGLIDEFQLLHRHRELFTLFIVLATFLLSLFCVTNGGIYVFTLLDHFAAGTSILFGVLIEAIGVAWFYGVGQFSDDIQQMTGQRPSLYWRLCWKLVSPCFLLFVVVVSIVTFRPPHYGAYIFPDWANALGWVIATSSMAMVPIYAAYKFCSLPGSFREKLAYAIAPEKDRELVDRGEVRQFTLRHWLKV
# assay.explanation: Inhibitory activity against human dopamine transporter at 10 uM
property.measured: pIC50
Worth noting: pIC50 values are minus log10 of concentrations stated in mol/L.

QUERY: What pIC50 appears in the records for this compound with Sodium-dependent dopamine transporter (Homo sapiens)? "CC[C@H](C)[C@H](C(=O)O)N1C[C@H](CN2CCC(c3cc(Cc4ccc(OC(F)(F)F)cc4)nn3CC)CC2)[C@@H](c2cccc(F)c2)C1"
RESULT: 5.44

* * *

# System: HeLa
# assay.explanation: Antiviral activities in a cell culture HIV-1 infectivity inhibition assay using HeLa cells plus 50% normal human serum
# Type: functional
property.measured: IC90 (nM)
Just the number please, in nM, no unit attached.

QUERY: // IC90 lookup, key: "CC[C@H](C)[C@H](C(=O)O)N1C[C@H](CN2CCC(c3cc(Cc4ccc(C(C)(C)C)cc4)nn3CC)CC2)[C@@H](c2cccc(F)c2)C1"
RESULT: 11

QUERY: Now this one: "CC[C@@H](C)[C@H](C(=O)O)N1C[C@H](CN2CCC(c3cc(Cc4ccc(C#N)cc4)nn3CC)CC2)[C@@H](c2cccc(F)c2)C1"
RESULT: 33

QUERY: Now this one: "CCn1nc(Cc2ccc(S(=O)(=O)c3ccccc3)cc2)cc1C1CCN(C[C@H]2CN([C@@H](C(=O)O)C(C)C)C[C@@H]2c2cccc(F)c2)CC1"
RESULT: 33

* * *

# assayed.system: L-type calcium channel, benzothiazepine site (Rattus norvegicus, UniProt P22002+P27732+Q02485)
# assay.explanation: Inhibition of binding to rat L-type Calcium channel benzothiazepine site at 10 uM
# Type: functional
property.measured: inhibition at 10 µM
Report field: quantity (unit follows the number).

QUERY: // inhibition at 10 µM lookup, key: "CC[C@H](C)[C@H](C(=O)O)N1C[C@H](CN2CCC(c3cc(Cc4ccc(OC(F)(F)F)cc4)nn3CC)CC2)[C@@H](c2cccc(F)c2)C1"
RESULT: 46%

QUERY: Now this one: "CCn1nc(Cc2ccc(OC)c(OC)c2)cc1C1CCN(C[C@H]2CN([C@@H](C(=O)O)C(C)(C)C)C[C@@H]2c2cccc(F)c2)CC1"
RESULT: -8%

QUERY: Now this one: "CC[C@H](C)[C@H](C(=O)O)N1C[C@H](CN2CCC(c3cc(Cc4ccc(OC)c(OC)c4)nn3CC)CC2)[C@@H](c2cccc(F)c2)C1"
RESULT: 36%

* * *

For each entry below, report its clearance value.
# assay.explanation: in vivo
# measurement.parameters: rat, plasma
Just the number please, in mL/min/kg, no unit attached.

QUERY: // clearance lookup, key: "CC[C@H](C)[C@H](C(=O)O)N1C[C@H](CN2CCC(c3cc(Cc4ccc(OC5CC5)cc4)nn3CC)CC2)[C@@H](c2cccc(F)c2)C1"
RESULT: 1.9

QUERY: Now this one: "CCn1nc(Cc2ccc(C(C)(C)C)cc2)cc1C1CCN(C[C@H]2CN([C@@H](C(=O)O)C(C)(C)C)C[C@@H]2c2cccc(F)c2)CC1"
RESULT: 1.1

QUERY: Now this one: "CCn1nc(Cc2ccc(OC(C)C)cc2)cc1C1CCN(C[C@H]2CN([C@@H](C(=O)O)C(C)(C)C)C[C@@H]2c2cccc(F)c2)CC1"
RESULT: 0.98

QUERY: Now this one: "CCn1nc(Cc2ccc(-c3ccccc3)cc2)cc1C1CCN(C[C@H]2CN([C@@H](C(=O)O)C3CCCCC3)C[C@@H]2c2cccc(F)c2)CC1"
RESULT: 5.3

QUERY: Now this one: "CCn1nc(Cc2cccc(F)c2)cc1C1CCN(C[C@H]2CN([C@@H](C(=O)O)C(C)C)C[C@@H]2c2cccc(F)c2)CC1"
RESULT: 3.9

QUERY: Now this one: "CCn1nc(Cc2ccc(OC(C)(C)C)cc2)cc1C1CCN(C[C@H]2CN([C@@H](C(=O)O)C3CCCCC3)C[C@@H]2c2cccc(F)c2)CC1"
RESULT: 27

QUERY: Now this one: "CC[C@H](C)[C@H](C(=O)O)N1C[C@H](CN2CCC(c3cc(Cc4ccc(C(C)C)cc4)nn3CC)CC2)[C@@H](c2cccc(F)c2)C1"
RESULT: 3.3

QUERY: Now this one: "CC[C@@H](C)[C@H](C(=O)O)N1C[C@H](CN2CCC(c3cc(Cc4ccc(OC(C)(C)C)cc4)nn3CC)CC2)[C@@H](c2cccc(F)c2)C1"
RESULT: 0.97

QUERY: Now this one: "CC[C@H](C)[C@H](C(=O)O)N1C[C@H](CN2CCC(c3cc(Cc4ccc(C(C)(C)C)cc4)nn3CC)CC2)[C@@H](c2cccc(F)c2)C1"
RESULT: 1.6

QUERY: Now this one: "CCn1nc(Cc2ccc(-c3ccccc3)cc2)cc1C1CCN(C[C@H]2CN([C@@H](C(=O)O)C(C)C)C[C@@H]2c2cccc(F)c2)CC1"
RESULT: 0.32

QUERY: Now this one: "CC[C@H](C)[C@H](C(=O)O)N1C[C@H](CN2CCC(c3cc(Cc4ccc(OC(C)(C)C)cc4)nn3CC)CC2)[C@@H](c2cccc(F)c2)C1"
RESULT: 4

QUERY: Now this one: "CC[C@@H](C)[C@H](C(=O)O)N1C[C@H](CN2CCC(c3cc(Cc4ccc(OC5CCC5)cc4)nn3CC)CC2)[C@@H](c2cccc(F)c2)C1"
RESULT: 0.75

QUERY: Now this one: "CCn1nc(Cc2ccc(OC3CCC3)cc2)cc1C1CCN(C[C@H]2CN([C@@H](C(=O)O)C(C)(C)C)C[C@@H]2c2cccc(F)c2)CC1"
RESULT: 0.62

QUERY: Now this one: "CCn1nc(Cc2ccc(S(C)(=O)=O)cc2)cc1C1CCN(C[C@H]2CN([C@@H](C(=O)O)C(C)C)C[C@@H]2c2cccc(F)c2)CC1"
RESULT: 11

QUERY: Now this one: "CCn1nc(Cc2ccc(F)cc2)cc1C1CCN(C[C@H]2CN([C@@H](C(=O)O)C(C)C)C[C@@H]2c2cccc(F)c2)CC1"
RESULT: 7.6

QUERY: Now this one: "CC[C@H](C)[C@H](C(=O)O)N1C[C@H](CN2CCC(c3cc(Cc4ccc(OC5CCC5)cc4)nn3CC)CC2)[C@@H](c2cccc(F)c2)C1"
RESULT: 2.7

QUERY: Now this one: "CC[C@@H](C)[C@H](C(=O)O)N1C[C@H](CN2CCC(c3cc(Cc4ccc(C#N)cc4)nn3CC)CC2)[C@@H](c2cccc(F)c2)C1"
RESULT: 9.8

QUERY: Now this one: "CCCCOc1ccc(Cc2cc(C3CCN(C[C@H]4CN([C@@H](C(=O)O)[C@@H](C)CC)C[C@@H]4c4cccc(F)c4)CC3)n(CC)n2)cc1"
RESULT: 4.8

QUERY: Now this one: "CCn1nc(Cc2ccc(-c3ccccc3)cc2)cc1C1CCN(C[C@H]2CN([C@@H](C(=O)O)C(C)(C)C)C[C@@H]2c2cccc(F)c2)CC1"
RESULT: 0.23

QUERY: Now this one: "CCOc1ccc(Cc2cc(C3CCN(C[C@H]4CN([C@@H](C(=O)O)C(C)(C)C)C[C@@H]4c4cccc(F)c4)CC3)n(CC)n2)cc1"
RESULT: 1.7

QUERY: Now this one: "CCn1nc(Cc2ccc(OC)c(OC)c2)cc1C1CCN(C[C@H]2CN([C@@H](C(=O)O)C(C)(C)C)C[C@@H]2c2cccc(F)c2)CC1"
RESULT: 2.1

QUERY: Now this one: "CCOc1ccc(Cc2cc(C3CCN(C[C@H]4CN([C@@H](C(=O)O)[C@@H](C)CC)C[C@@H]4c4cccc(F)c4)CC3)n(CC)n2)cc1"
RESULT: 4.4

QUERY: Now this one: "CC[C@H](C)[C@H](C(=O)O)N1C[C@H](CN2CCC(c3cc(Cc4ccc(OC(F)(F)F)cc4)nn3CC)CC2)[C@@H](c2cccc(F)c2)C1"
RESULT: 8.8
